- Run Description: amyloid nucleation score (Sup35N fusion, yeast selection) (log enrichment); library NNK3; higher = more nucleation; inactive = no reads after selection;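 also: zero at mode of non-aggregating sequences after 7 days selection at 30°C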
Measurement Kind: amyloid nucleation score

Sample answers from the record:
Prompt: Name the reported amyloid nucleation score value associated with the substance AMDRTNNIEDEQWIMNKYWV
Response: inactive

Prompt: Reported amyloid nucleation score, substance DNVNYPPVSYQTAG : ____
Response: inactive

Prompt: Item under review: AVRCPLNMHLRGRAVVQYKG . Reported amyloid nucleation score?
Response: inactive

Prompt: Look at this substance and give its reported amyloid nucleation score. IIVTKGAMR
Response: -0.87

Prompt: Recorded amyloid nucleation score for RVRVNPSVHRRPRYGND , please?
Response: inactive

Prompt: Find the recorded amyloid nucleation score belonging to IRQGNVYK and report it.
Response: inactive

---
Prompt: Which amyloid nucleation score reading was recorded for the substance HIVLVSRLHITAGGRF ?
Response: -0.179

Prompt: // returns reported amyloid nucleation score for input CKSNKCSAVMVLVA
Response: inactive

Prompt: Fill in: amyloid nucleation score of NWAGRLWLTV is ___
Response: inactive
